# Tested on: Staphylococcus aureus (G+ve) bacteria
# PROTOCOL TEXT: Zone of inhibition (ZI) paper disc test, antibacterial/antioxidant activity
# Type: cell-based
# ASSAY CONTEXT: premixed 0.01M compound + 1M Pyrogallol, 1:1; decrease vs pure pyrogallol = antioxidant
# Protocol: Tests were conducted to check the antioxidant/antibacterial activity of macrocycle and host-guest compounds. 5 uL of 0.01M compound, 5 uL (premixed, 0.01M compound+1M Pyrogallol, 1:1) and 5 uL (premixed, 0.01M compound+0.88M H2O2, 1:1) were added on paper discs placed on plates. 5 uL of 1M pyrogallol, 5 uL of 0.88M H2O2 were used as control (oxidants). In the following tables, Decrease/Increase means wrt pure H2O2 or pyrogallol. […] Zone=mm of zone width around disk.
METRIC: Zone of inhibition (ZI), 5 uL of (Compound + Pyrogallol)

OCCN1CCN(Cc2ccc(O)c3ncccc23)CC1 [VK] = (2.3 mm)
Cc1ccc(=O)n(-c2ccccc2)c1 [PFD, 5-methyl-1-phenylpyridin-2-one] = No ZI
CCCCC1c2cc(c(O)cc2O)C(CCCC)c2cc(c(O)cc2O)C(CCCC)c2cc(c(O)cc2O)C(CCCC)c2cc1c(O)cc2O (centres unmarked) [RsC4, C-butylresorcin[4]arene] = (2.3 mm)
